B1: HDV Ribozyme (parent)
chain: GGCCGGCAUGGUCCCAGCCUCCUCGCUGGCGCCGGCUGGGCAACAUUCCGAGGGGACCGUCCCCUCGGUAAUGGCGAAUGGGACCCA

# Variants of: B1
# Protocol text: self-cleavage, relative activity (ratio to wild type); higher = more cleavage; co-transcriptional
Please use the following self-cleavage ranges when assigning a class: 0 = under 0.2, 1 = from 0.2 up to 0.3, 2 = 0.3 and over

Some solved entries appear below for comparison.
• GGCCGGCAUGGUCCCAGCCUCCUCGCUGGCGCCGGCUGGGCAACAUUCCGAGGGGACCGUCCCUUCGGUAAUGGCGAAUUGGACCCA [C64U G80U] = 1
• GGCCGGCAUGGUCCCAGCCUCCUCGCUGGCGCCGGCUGGGCAACAUUCCGAGGGGGCCGUCCCCUCGGUAAUGGUGAAUGGGACCCA [A56G C75U] = 0
• GGCCGGCAUGGUCCCAGCCUCCUCGCUGGCGCCGGCUGGGCAACAUUCCGAGGGGACCGUCCCCUCGGAAAUGGCGAAUGAGACCCA [U69A G81A] = 2
• GGCCGGCAUGGUCCCAGCCUCCUCGCUGGCGCCGGCUGUGCAACAUUCCGAGGGGACCGUCGCCUCGGUAAUGGCGAAUGGGACCCA [G39U C62G] = 2
• GGCCGGCAUGGUCCCAGCCUUCUCGCUCGCGCCGGCUGGGCAACAUUCCGAGGGGACCGUCCCCUCGGUAAUGGCGAAUGGGACCCA [C21U G28C] = 0
• GGCCGGCGUGGUCCCAGCCUCGUCGCUGGCGCCGGCUGGGCAACAUUCCGAGGGGACCGUCCCCUCGGUAAUGGCGAAUGGGACCCA [A8G C22G] = 0
• GGCCGCCAUGGUCCCAGCCUCCUCGCUGGCGCCGGCUGGGCAACAUUCCGAGGGAACCGUCCCCUCGGUAAUGGCGAAUGGGACCCA [G6C G55A] = 0
• GGCCGGCAUGGUCCCAGCCUCCUCGCUGGCGCCGGCUGGGCAACAUUCCCAGGGGACCGUCCCCUCGGUAAUGGCGAAUGGGACCCG [G50C A87G] = 2
• GGCCGGCAUGGUCCCAGCCUCCUCGCUGGCGCCGGCUUGGCAACAUUCCGAGGGUACCGUCCCCUCGGUAAUGGCGAAUGGGACCCA [G38U G55U] = 1
• GGCCGGCAUGGUCCCAGCCUCCUCGCUGGCGCCGCCUGGGCAACAUUCCGAGGCGACCGUCCCCUCGGUAAUGGCGAAUGGGACCCA [G35C G54C] = 0

# bin label for GGCCGGCAUGGUCCCAGCCUCCUCGCUGGCGCCGUCUGGGCAACAUUCCGAGGGGACCGUCCCCUCGGUAAUAGCGAAUGGGACCCA [G35U G73A] 0

# bin label for GGCCGGCAUGGUCCCAGCCUCCUCUCUGGCGCCGGCUGGGCAACAUUCCGAGGGGACCGUCCCCUCGGUAAUGGCGAAUGGGACCGA [G25U C86G] 1

# bin label for GGCCGCCAUGGUCCCAGCCUCCUCGCUGGCGCCGGCUGGGCAACAUUCCGAGGGGACCGGCCCCUCGGUAAUGGCGAAUGGGACCCA [G6C U60G] 2

# bin label for GGCCGGCAUGGUCCCAGCCUCCUCGCUGGCGCCGGCUGGGCAACAGUCCGAGGGGACCGUCCCCUCGGUAAUGGCGAACGGGACCCA [U46G U79C] 0

# bin label for GGCCGGCAUGGUCCCAGCCUCCUUGCUGGCGCCGGGUGGGCAACAUUCCGAGGGGACCGUCCCCUCGGUAAUGGCGAAUGGGACCCA [C24U C36G] 0

Origin of measurements: the RNAGym collection of RNA variant scans (doi:10.7554/elife.80360)
